# measurement.target: oligopeptidase B (OPB); Nagaimo protease
# Construct: native, purified from tubers; monomer, 75 kDa by gel filtration, 81 kDa by reducing SDS-PAGE; internal tryptic peptide SAGGLLMGAVLNMR
# test.summary: fluorometric AMC release, inhibitor titration
# Assay type: biochemical, Dioscorea polystachya
# experimental.context: 100 μM Bz-Arg-MCA, 50 mM Tris-HCl pH 8.0, 10 min preincubation at 23 °C, assay 37 °C
Numbered stars: 1 amine (or outer) side, 2 acyl side, 3 side chain; on linkers, the order of the positions; unused ones are H or OH. Peptide text beside a SMILES is read from it. CO = O=C([*:1])[*:2]
endpoint.label: IC50 (nM)
Number only, in nM; omit the unit.

compound: CC(=O)N[C@@H](CC(C)C)C(=O)N[C@@H](CC(C)C)C(=O)N[C@H](C=O)CCCNC(=N)N
units.of.measure: nM
IC50: 120

Name the recorded IC50 of the compound listed here: CC(C)[C@H](NC(=O)[C@H](CCCNC(=N)N)NC(=O)N[C@@H](Cc1ccccc1)C(=O)O)C(=O)N[C@H](C=O)CCCNC(=N)N [Antipain] ({Phe-CO}-Arg-Val-Arg-aldehyde)
210
